- METHOD: Toxicity in 3 dpf zebra fish assessed as mortality at 12.5 ug/ml (reference value: 0%)
- Design: species or system Danio rerio
- TEST CONDITIONS: zebrafish, at 12.5 µg/mL, read-out: Activity
RECORDED ENDPOINT: mortality at 12.5 ug/ml (%)
Numeric only. Scale: %

mortality at 12.5 ug/ml recorded for this molecule, CCN(CCCCOc1ccc(-c2cc(=O)c3c(O)cc(OCCCCN(CC)Cc4ccccc4)cc3o2)cc1)Cc1ccccc1 , is 100

====

- TESTED SYSTEM: Cholinesterase (Equus caballus)
- METHOD: Inhibition of equine serum BChE by Ellman's method
Catalogue of molecules with associated IC50
Numeric only. Scale: µM

The following molecules have reported results that may help.
1. O=c1cc(-c2ccc(OCCCCN3CCC(Cc4ccccc4)CC3)cc2)oc2cc(OCCCCN3CCC(Cc4ccccc4)CC3)cc(O)c12
19.7
2. CCN(CCCCOc1ccc(-c2cc(=O)c3c(O)cc(OCCCCN(CC)Cc4ccccc4)cc3o2)cc1)Cc1ccccc1
9.6
3. CCN(CCCCOc1ccc(C2CC(=O)c3c(O)cc(OCCCCN(CC)Cc4ccccc4OC)cc3O2)cc1)Cc1ccccc1OC (stereo not given)
21.9
4. O=C1CC(c2ccc(OCCCCN3CCC(Cc4ccccc4)CC3)cc2)Oc2cc(OCCCCN3CCC(Cc4ccccc4)CC3)cc(O)c21 (stereo not given)
7.5

IC50 recorded for this molecule, CCN(CCCCOc1ccc(/C=C/C(=O)c2c(O)cc(OCCCCN(CC)Cc3ccccc3OC)cc2O)cc1)Cc1ccccc1OC , is 15.6

IC50 recorded for this molecule, O=C(/C=C/c1ccc(OCCCCN2CCCCC2)cc1)c1c(O)cc(OCCCCN2CCCCC2)cc1O , is 7.2

IC50 recorded for this molecule, O=c1cc(-c2ccc(OCCCCN3CCN(Cc4ccccc4)CC3)cc2)oc2cc(OCCCCN3CCN(Cc4ccccc4)CC3)cc(O)c12 , is 37.5

====

Catalogue of compounds with associated IC50
- TESTED SYSTEM: Acetylcholinesterase (Homo sapiens, UniProt P22303)
- Sequence (P22303 whole entry): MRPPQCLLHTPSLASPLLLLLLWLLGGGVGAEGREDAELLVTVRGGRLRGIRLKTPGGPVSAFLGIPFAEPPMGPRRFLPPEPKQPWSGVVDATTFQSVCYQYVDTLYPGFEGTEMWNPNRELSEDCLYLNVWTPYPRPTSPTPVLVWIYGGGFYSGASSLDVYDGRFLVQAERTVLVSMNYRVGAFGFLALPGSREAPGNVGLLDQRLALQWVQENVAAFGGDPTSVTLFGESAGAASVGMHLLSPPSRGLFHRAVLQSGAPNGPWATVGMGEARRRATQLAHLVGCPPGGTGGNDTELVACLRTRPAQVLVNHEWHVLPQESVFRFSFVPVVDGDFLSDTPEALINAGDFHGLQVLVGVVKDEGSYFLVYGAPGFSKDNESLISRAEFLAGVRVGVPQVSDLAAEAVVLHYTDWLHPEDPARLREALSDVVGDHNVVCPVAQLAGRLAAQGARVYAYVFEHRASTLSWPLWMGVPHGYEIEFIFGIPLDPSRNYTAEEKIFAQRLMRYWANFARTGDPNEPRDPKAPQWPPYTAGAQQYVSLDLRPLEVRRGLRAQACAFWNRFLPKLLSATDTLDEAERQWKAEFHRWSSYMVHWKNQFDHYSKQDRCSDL
- METHOD: Inhibition of AChE in human erythrocytes by Ellman's method
Numeric only. Scale: µM

1. O=c1cc(-c2ccc(OCCCCN3CCC(Cc4ccccc4)CC3)cc2)oc2cc(OCCCCN3CCC(Cc4ccccc4)CC3)cc(O)c12
0.67

IC50 recorded for this compound, O=C1CC(c2ccc(OCCCCN3CCC(Cc4ccccc4)CC3)cc2)Oc2cc(OCCCCN3CCC(Cc4ccccc4)CC3)cc(O)c21 (centres undefined) , is 7.6

IC50 recorded for this compound, O=C1CC(c2ccc(OCCCCN3CCN(Cc4ccccc4)CC3)cc2)Oc2cc(OCCCCN3CCN(Cc4ccccc4)CC3)cc(O)c21 (centres undefined) , is 18.7

IC50 recorded for this compound, O=c1c(-c2ccc(OCCCCN3CCCCC3)cc2)coc2cc(OCCCCN3CCCCC3)cc(O)c12 , is 0.81

====

- Test system: HT-22
- METHOD: Cytotoxicity against mouse HT-22 cells assessed as reduction in cell viability after 24 hrs by MTT assay
- Assay type: cell-based
- TEST CONDITIONS: HT-22, 24 h
RECORDED ENDPOINT: IC50 (µM)
Numeric only. Scale: µM

IC50 recorded for this compound, CCN(CCCCOc1ccc(-c2cc(=O)c3c(O)cc(OCCCCN(CC)Cc4ccccc4)cc3o2)cc1)Cc1ccccc1 , is 39.7

====

- TESTED SYSTEM: Acetylcholinesterase (Electrophorus electricus, UniProt O42275)
- Sequence (O42275 whole entry): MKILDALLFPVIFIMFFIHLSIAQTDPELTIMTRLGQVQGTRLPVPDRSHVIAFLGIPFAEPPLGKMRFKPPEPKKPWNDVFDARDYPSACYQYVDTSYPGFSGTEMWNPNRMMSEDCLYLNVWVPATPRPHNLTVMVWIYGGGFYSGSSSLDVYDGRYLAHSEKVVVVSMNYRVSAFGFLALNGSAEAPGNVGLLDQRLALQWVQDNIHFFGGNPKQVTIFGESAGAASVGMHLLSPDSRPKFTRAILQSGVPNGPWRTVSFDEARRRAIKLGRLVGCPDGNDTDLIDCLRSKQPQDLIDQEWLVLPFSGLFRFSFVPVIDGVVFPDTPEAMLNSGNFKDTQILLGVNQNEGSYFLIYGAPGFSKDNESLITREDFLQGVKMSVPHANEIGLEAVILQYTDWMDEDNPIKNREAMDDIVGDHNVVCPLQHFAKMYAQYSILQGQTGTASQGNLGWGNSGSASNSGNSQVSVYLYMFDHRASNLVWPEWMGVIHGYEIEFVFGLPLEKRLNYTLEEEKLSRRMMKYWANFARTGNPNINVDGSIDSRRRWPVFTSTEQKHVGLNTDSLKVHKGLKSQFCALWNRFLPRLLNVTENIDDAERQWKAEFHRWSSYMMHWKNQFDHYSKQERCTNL
pIC50: −log10 of the molar value.
Decision: pIC50 >= 5 yields condition met, all other cases yield condition not met.

Solved cases (3 shown):
1) O=c1cc(-c2ccc(OCCCCN3CCN(Cc4ccccc4)CC3)cc2)oc2cc(OCCCCN3CCN(Cc4ccccc4)CC3)cc(O)c12
condition not met
2) CCN(CCCCOc1ccc(C2CC(=O)c3c(O)cc(OCCCCN(CC)Cc4ccccc4OC)cc3O2)cc1)Cc1ccccc1OC (configuration not stated)
condition met
3) O=C1CC(c2ccc(OCCCCN3CCc4ccccc4C3)cc2)Oc2cc(OCCCCN3CCc4ccccc4C3)cc(O)c21 (configuration not stated)
condition not met

Hello, I need to know if CCN(CCCCOc1ccc(-c2cc(=O)c3c(O)cc(OCCCCN(CC)Cc4ccccc4)cc3o2)cc1)Cc1ccccc1 has measured pIC50 not below 5. Thanks!
condition met

====

- METHOD: Binding affinity to amyloid beta (1 to 42 residues) (unknown origin) by biolayer interferometry analysis
- Parameters: species or system Homo sapiens
RECORDED ENDPOINT: Kd (nM)
Numeric only. Scale: nM

Kd recorded for this compound, CCN(CCCCOc1ccc(-c2cc(=O)c3c(O)cc(OCCCCN(CC)Cc4ccccc4)cc3o2)cc1)Cc1ccccc1 , is 1200

====

Catalogue of compounds with associated inhibition
- TESTED SYSTEM: Cholinesterase (Homo sapiens)
- Sequence (P06276 whole entry): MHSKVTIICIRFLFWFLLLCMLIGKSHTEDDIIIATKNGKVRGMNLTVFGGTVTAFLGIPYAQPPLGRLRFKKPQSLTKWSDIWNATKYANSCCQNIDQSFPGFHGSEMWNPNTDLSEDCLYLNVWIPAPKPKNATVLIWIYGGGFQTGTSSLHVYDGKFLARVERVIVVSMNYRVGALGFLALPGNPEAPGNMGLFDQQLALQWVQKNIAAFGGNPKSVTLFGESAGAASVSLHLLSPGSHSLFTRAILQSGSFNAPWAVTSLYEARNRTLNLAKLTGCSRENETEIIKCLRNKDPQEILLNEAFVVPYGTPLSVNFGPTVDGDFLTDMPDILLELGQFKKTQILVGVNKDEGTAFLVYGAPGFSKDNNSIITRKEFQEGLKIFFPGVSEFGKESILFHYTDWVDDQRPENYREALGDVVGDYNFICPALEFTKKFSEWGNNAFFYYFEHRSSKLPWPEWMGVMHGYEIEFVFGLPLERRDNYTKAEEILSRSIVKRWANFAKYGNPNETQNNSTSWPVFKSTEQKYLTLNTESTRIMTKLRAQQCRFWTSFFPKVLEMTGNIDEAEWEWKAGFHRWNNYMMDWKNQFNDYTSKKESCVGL
- METHOD: Inhibition of human serum BChE by Ellman's method relative to control
- Type: cell-free
- Set-up: concentration or dose not given beside the values
- TEST CONDITIONS: concentration not given here

The following compounds have reported results that may help.
1) O=C1CC(c2ccc(OCCCCN3CCN(Cc4ccccc4)CC3)cc2)Oc2cc(OCCCCN3CCN(Cc4ccccc4)CC3)cc(O)c21 (stereo not given)
12.2%
2) CCN(CCCCOc1ccc(-c2coc3cc(OCCCCN(CC)Cc4ccccc4)cc(O)c3c2=O)cc1)Cc1ccccc1
12%
3) O=c1c(-c2ccc(OCCCCN3CCN(Cc4ccccc4)CC3)cc2)coc2cc(OCCCCN3CCN(Cc4ccccc4)CC3)cc(O)c12
5.8%
4) O=C1CC(c2ccc(OCCCCN3CCc4ccccc4C3)cc2)Oc2cc(OCCCCN3CCc4ccccc4C3)cc(O)c21 (stereo not given)
8.8%

inhibition recorded for this compound, CC1c2ccccc2CCN1CCCCOc1ccc(-c2coc3cc(OCCCCN4CCc5ccccc5C4C)cc(O)c3c2=O)cc1 (stereo not given) , is 19%

====

Catalogue of compounds with associated IC50
- TESTED SYSTEM: Cholinesterase (Equus caballus, UniProt P81908)
- Sequence (P81908 whole entry): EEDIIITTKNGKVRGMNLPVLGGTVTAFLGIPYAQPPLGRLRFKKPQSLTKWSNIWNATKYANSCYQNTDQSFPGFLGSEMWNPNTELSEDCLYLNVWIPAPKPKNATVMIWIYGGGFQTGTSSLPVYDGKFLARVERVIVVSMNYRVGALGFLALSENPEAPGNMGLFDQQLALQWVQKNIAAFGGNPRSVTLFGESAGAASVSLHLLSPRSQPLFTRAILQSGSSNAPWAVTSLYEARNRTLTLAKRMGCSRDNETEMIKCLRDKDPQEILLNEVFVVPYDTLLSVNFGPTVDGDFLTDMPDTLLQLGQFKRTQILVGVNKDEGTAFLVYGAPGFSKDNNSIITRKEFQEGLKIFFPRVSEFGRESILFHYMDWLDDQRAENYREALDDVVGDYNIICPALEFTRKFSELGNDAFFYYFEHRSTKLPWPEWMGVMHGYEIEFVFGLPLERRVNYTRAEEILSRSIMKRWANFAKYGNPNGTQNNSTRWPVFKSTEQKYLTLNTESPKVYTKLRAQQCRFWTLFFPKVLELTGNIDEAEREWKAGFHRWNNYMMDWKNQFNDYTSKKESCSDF
- METHOD: Inhibition of equine serum BChE by Ellman's method

The following compounds have reported results that may help.
1. CCN(CC)CCCCOc1ccc(/C=C/C(=O)c2c(O)cc(OCCCCN(CC)CC)cc2O)cc1
30.8 µM
2. O=c1c(-c2ccc(OCCCCN3CCc4ccccc4C3)cc2)coc2cc(OCCCCN3CCc4ccccc4C3)cc(O)c12
52.6 µM

IC50 recorded for this compound, O=c1c(-c2ccc(OCCCCN3CCC(Cc4ccccc4)CC3)cc2)coc2cc(OCCCCN3CCC(Cc4ccccc4)CC3)cc(O)c12 , is 31.8 µM

====

- TESTED SYSTEM: Acetylcholinesterase (Electrophorus electricus)
Catalogue of compounds with associated pIC50
Note on units: pIC50 is unitless, being -log10 of a concentration expressed in mol/L.

So the reported pIC50 for O=c1c(-c2ccc(OCCCCN3CCC(Cc4ccccc4)CC3)cc2)coc2cc(OCCCCN3CCC(Cc4ccccc4)CC3)cc(O)c12 , on Acetylcholinesterase (Electrophorus electricus), turned out to be 5.14

So the reported pIC50 for O=C1CC(c2ccc(OCCCCN3CCN(Cc4ccccc4)CC3)cc2)Oc2cc(OCCCCN3CCN(Cc4ccccc4)CC3)cc(O)c21 (stereo not drawn) , on Acetylcholinesterase (Electrophorus electricus), turned out to be 4.94

So the reported pIC50 for O=C1CC(c2ccc(OCCCCN3CCC(Cc4ccccc4)CC3)cc2)Oc2cc(OCCCCN3CCC(Cc4ccccc4)CC3)cc(O)c21 (stereo not drawn) , on Acetylcholinesterase (Electrophorus electricus), turned out to be 5.09
